The values you see were collected from patent US20100298141A1.

Reported Kochia plant response rating values are given for each entry in this list.
tested on: kochia; assay: Test C pre-/postemergence test; format: in vivo, Kochia scoparia; settings: 125 g ai/ha, preemergence; scale 0 (no effect) to 100 (complete control)
Please give only the number in your answer, with no unit.

Worked cases, Kochia plant response rating given:
# COMPOUND, Kochia plant response rating
measured = [
    ("CCn1nc(C(F)(F)F)c(CS(=O)(=O)c2cc(C)cc[n+]2[O-])c1OCC(F)(F)F [Compound 64]", 100),
    ("CCc1cc[n+]([O-])c([S+]([O-])Cc2c(C(F)(F)F)nn(C)c2OC(F)F)c1 (centres unmarked) [Compound 101]", 85),
    ("C#CCOc1c(CS(=O)(=O)c2cccc[n+]2[O-])c(C(F)(F)F)nn1C [Compound 103]", 100),
]

Specify reported Kochia plant response rating for the compound shown: CC(c1c(C(F)(F)F)nn(CC(F)(F)F)c1Cl)[S+]([O-])c1cccc[n+]1[O-] (centres unmarked) [Compound 46]
100

Specify reported Kochia plant response rating for the compound shown: Cn1nc(C(F)(F)F)c(C[S+]([O-])c2ccc(F)c[n+]2[O-])c1OC(F)F (centres unmarked) [Compound 58]
100

###

test system: common mallow; test: Test F preemergence test; assay type: in vivo, Malva sylvestris; details: 62 g ai/ha, Preemergence; scale 0 to 100
OBSERVABLE: Mallow plant response rating
Please give only the number in your answer, with no unit.

# MOLECULE, TEST_TARGET, Mallow plant response rating
rows = [
    ("Cc1cc[n+]([O-])c(S(=O)(=O)C(C)c2c(C(F)(F)F)nn(C)c2OC(F)F)c1 (stereo not drawn)", "common mallow", 100),
    ("Cn1nc(C(F)(F)F)c(C[S+]([O-])c2ccc(Cl)c[n+]2[O-])c1OCC(F)(F)F (racemic)", "common mallow", 98),
    ("Cc1cc[n+]([O-])c([S+]([O-])Cc2c(C(F)(F)F)nn(C)c2Cl)c1 (racemic)", "common mallow", 60),
    ("Cc1cc[n+]([O-])c(S(=O)(=O)Cc2c(C(F)(F)F)nn(C)c2OC(F)F)c1", "common mallow", 35),
    ("Cn1nc(OC(F)F)c(CS(=O)(=O)c2cccc[n+]2[O-])c1C(F)(F)F", "common mallow", 0),
]

Look up and report Mallow plant response rating, with common mallow as system, for CCn1nc(C(F)(F)F)c(C[S+]([O-])c2cc(C)cc[n+]2[O-])c1OCC(F)(F)F (racemic)
80

Look up and report Mallow plant response rating, with common mallow as system, for `Cn1nc(C(F)(F)F)c(CS(=O)(=O)c2cccc[n+]2[O-])c1OC(F)F`
0

Look up and report Mallow plant response rating, with common mallow as system, for CC(c1c(C(F)(F)F)nn(C)c1OCC(F)(F)F)S(=O)(=O)c1cccc[n+]1[O-] (racemic)
100

Look up and report Mallow plant response rating, with common mallow as system, for `Cn1nc(C(F)(F)F)c(CS(=O)(=O)c2cccc[n+]2[O-])c1OCC(F)(F)F`
100

###

test system: corn; assay: Test A pre-/postemergence greenhouse test; assay type: in vivo, Zea mays; conditions: Postemergence, 500 g ai/ha; 0 to 100 scale, 0 is no effect, 100 is complete control
Please use yes (1) whenever Corn plant response rating is not below 60, and no (0) whenever it is.

# COMPOUND, TEST_TARGET, CLASS_NAME
measured = [
    ("CC(Oc1c(CS(=O)(=O)c2cccc[n+]2[O-])c(C(F)(F)F)nn1C)C(F)(F)F (centres unmarked) [Compound 82]", "corn", "no (0)"),
    ("CC(c1c(C(F)(F)F)nn(C)c1OCC(F)(F)F)S(=O)(=O)c1cccc[n+]1[O-] (racemic) [Compound 33]", "corn", "yes (1)"),
    ("CCc1cc[n+]([O-])c(S(=O)(=O)Cc2c(C(F)(F)F)nn(C)c2OC(F)F)c1 [Compound 102]", "corn", "no (0)"),
]

Would you kindly look at the next entry?
Does Corn plant response rating meet or surpass 60 for CC(c1c(C(F)(F)F)nn(C)c1Cl)S(=O)(=O)c1ccc(Cl)c[n+]1[O-] (racemic) [Compound 40] ?
no (0)

###

Reported Morningglory plant response rating values are given for each entry in this list.
system: morningglory; test: Test A pre-/postemergence greenhouse test; type: in vivo, Ipomoea spp.; settings: Preemergence, 500 g ai/ha; 0 to 100 scale, 0 no effect, 100 complete control
Please give only the number in your answer, with no unit.

Worked cases, Morningglory plant response rating given:
# MOLECULE, Morningglory plant response rating
measured = [
    ("CC(C)c1cc[n+]([O-])c(S(=O)(=O)Cc2c(C(F)(F)F)nn(C)c2OC(F)F)c1 [Compound 110]", 100),
    ("Cc1ccc[n+]([O-])c1S(=O)(=O)Cc1c(C(F)(F)F)nn(C)c1OC(F)F [Compound 113]", 80),
    ("Cn1nc(C(F)(F)F)c(C[S+]([O-])c2cc(C3CC3)cc[n+]2[O-])c1OCC(F)(F)F (stereo not shown) [Compound 121]", 90),
    ("CCCc1cc[n+]([O-])c([S+]([O-])Cc2c(C(F)(F)F)nn(C)c2OCC(F)(F)F)c1 (stereo not shown) [Compound 114]", 90),
    ("CCCc1cc[n+]([O-])c([S+]([O-])Cc2c(C(F)(F)F)nn(C)c2OC(F)F)c1 (stereo not shown) [Compound 116]", 100),
    ("CC(C)c1cc[n+]([O-])c([S+]([O-])Cc2c(C(F)(F)F)nn(C)c2OCC(F)(F)F)c1 (stereo not shown) [Compound 104]", 100),
]

Look up and report Morningglory plant response rating, with morningglory as system, for CCCc1cc[n+]([O-])c(S(=O)(=O)Cc2c(C(F)(F)F)nn(C)c2OCC(F)(F)F)c1 [Compound 115]
80

###

Reported Morningglory plant response rating values are given for each entry in this list.
tested on: pitted morningglory; assay: Test F preemergence test; format: in vivo, Ipomoea lacunosa; conditions: 125 g ai/ha, preemergence, scale 0 to 100
Please give only the number in your answer, with no unit.

Worked cases, Morningglory plant response rating given:
# COMPOUND, TEST_TARGET, Morningglory plant response rating
data = [
    ("CCc1cc[n+]([O-])c(S(=O)(=O)Cc2c(C(F)(F)F)nn(C)c2OCC(F)(F)F)c1 [Compound 60]", "pitted morningglory", 70),
    ("Cn1nc(C(F)(F)F)c(C[S+]([O-])c2ccc(Cl)c[n+]2[O-])c1OCC(F)(F)F (racemic) [Compound 62]", "pitted morningglory", 100),
    ("Cn1nc(C(F)(F)F)c(C[S+]([O-])c2ccc(F)c[n+]2[O-])c1OC(F)F (stereo not shown) [Compound 58]", "pitted morningglory", 100),
]

Moving on to another compound below.
Specify reported Morningglory plant response rating for the compound shown: Cc1cc[n+]([O-])c(S(=O)(=O)Cc2c(C(F)(F)F)nn(C)c2Cl)c1 [Compound 19]
0

###

system: woolly cupgrass; test: Test C pre-/postemergence test; type: in vivo, Eriochloa villosa; conditions: Preemergence, 31 g ai/ha; scale 0 to 100 (0 no effect, 100 complete control)
Please use Criterion met whenever Plant response rating, Cupgrass, Woolly is not below 40, and Criterion not met whenever it is.

Use the examples below as a reference point.
# COMPOUND, CLASS_NAME
measured = [
    ("Cc1cc[n+]([O-])c([S+]([O-])Cc2c(C(F)(F)F)nn(C)c2Cl)c1 (racemic)", "Criterion not met"),
    ("Cn1nc(C(F)(F)F)c(C[S+]([O-])c2ccc(Cl)c[n+]2[O-])c1Cl (racemic)", "Criterion met"),
    ("Cn1nc(C(F)(F)F)c(C[S+]([O-])c2cc(C(F)(F)F)cc[n+]2[O-])c1Cl (racemic)", "Criterion not met"),
    ("Cc1cc[n+]([O-])c(S(=O)(=O)Cc2c(C(F)(F)F)nn(C)c2OCC(F)F)c1", "Criterion not met"),
    ("CCc1cc[n+]([O-])c(S(=O)(=O)Cc2c(C(F)(F)F)nn(C)c2OCC(F)(F)F)c1", "Criterion met"),
]

Would you kindly look at the next entry?
Does Plant response rating, Cupgrass, Woolly meet or surpass 40 for CC(C)c1cc[n+]([O-])c([S+]([O-])Cc2c(C(F)(F)F)nn(C)c2OC(F)F)c1 (stereo not shown) ?
Criterion met

###

system: Italian ryegrass; test: Test C pre-/postemergence test; assay type: in vivo, Lolium multiflorum; settings: 125 g ai/ha, preemergence; scale 0 (no effect) to 100 (complete control)
Reported Ryegrass, Italian plant response rating values are given for each entry in this list.
Please give only the number in your answer, with no unit.

Worked cases, Ryegrass, Italian plant response rating given:
# MOLECULE, Ryegrass, Italian plant response rating
rows = [
    ("CC(Oc1c(C[S+]([O-])c2ccc(Cl)c[n+]2[O-])c(C(F)(F)F)nn1C)C(F)(F)F (stereo not shown)", 100),
    ("CCn1nc(C(F)(F)F)c(C[S+]([O-])c2cc(C)cc[n+]2[O-])c1OCC(F)(F)F (racemic)", 100),
]

Specify reported Ryegrass, Italian plant response rating for the molecule shown: CC(c1c(C(F)(F)F)nn(CC(F)(F)F)c1Cl)[S+]([O-])c1cccc[n+]1[O-] (stereo not shown)
80

Specify reported Ryegrass, Italian plant response rating for the molecule shown: Cc1cc([S+]([O-])Cc2c(C(F)(F)F)nn(C)c2OCC(F)(F)F)[n+]([O-])cc1Cl (stereo not shown)
100
